- system tested: Porcine pancreatic α-amylase (Sus scrofa)
- Sequence (P00690 16-511): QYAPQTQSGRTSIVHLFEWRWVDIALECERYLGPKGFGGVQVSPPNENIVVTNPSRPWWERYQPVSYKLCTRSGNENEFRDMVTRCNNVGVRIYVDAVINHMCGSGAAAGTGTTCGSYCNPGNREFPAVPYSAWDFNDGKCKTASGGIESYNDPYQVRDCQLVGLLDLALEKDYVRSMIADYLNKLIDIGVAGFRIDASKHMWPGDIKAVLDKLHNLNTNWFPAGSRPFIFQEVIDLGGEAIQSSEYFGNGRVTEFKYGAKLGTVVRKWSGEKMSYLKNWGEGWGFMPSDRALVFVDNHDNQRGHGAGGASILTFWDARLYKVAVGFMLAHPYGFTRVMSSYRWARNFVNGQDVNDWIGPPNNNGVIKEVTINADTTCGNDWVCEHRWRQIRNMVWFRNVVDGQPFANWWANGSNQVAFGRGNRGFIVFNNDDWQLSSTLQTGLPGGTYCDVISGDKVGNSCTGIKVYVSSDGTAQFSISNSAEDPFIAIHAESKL
observation type: log10 IC50 (log10 of the value in µM)
Heads up: the numbers are on a log10 scale; they represent IC50 in µM.

Consider the reported log10 IC50 for these compounds:
O=C1C[C@@H](c2ccc(O)cc2)Oc2cc(O)cc(O)c21 = 0.79
C[C@@H]1O[C@@H](OC[C@H]2O[C@@H](Oc3c(-c4ccc(O)c(O)c4)oc4cc(O)cc(O)c4c3=O)[C@H](O)[C@@H](O)[C@@H]2O)[C@H](O)[C@H](O)[C@H]1O [Rutin, Quercetin-3-rutinoside] = 0.61
COc1cc(-c2oc3cc(O)cc(O)c3c(=O)c2OC2OC(COC3OC(C)C(O)C(O)C3O)C(O)C(O)C2O)ccc1O (stereo not drawn) [Isorhamnetin-3-rutinoside] = 1.42

stdin: Return reported log10 IC50 for target or system Porcine pancreatic α-amylase (Sus scrofa), item O=C(O)Cc1ccc(O)c(O)c1 [3,4-Dihydroxyphenylacetic acid] .
stdout: 1.87

stdin: Return reported log10 IC50 for target or system Porcine pancreatic α-amylase (Sus scrofa), item CC1OC(OCC2OC(Oc3c(-c4ccc(O)cc4)oc4cc(O)cc(O)c4c3=O)C(O)C(O)C2O)C(O)C(O)C1O (stereo not drawn) [Kaempferol-3-rutinoside] .
stdout: 1.28

stdin: Return reported log10 IC50 for target or system Porcine pancreatic α-amylase (Sus scrofa), item Oc1cc(O)c2c(c1)O[C@H](c1ccc(O)c(O)c1)[C@@H](O)C2 .
stdout: 1.15
